Molecular target: Purified recombinant von Willebrand factor (UniProt P04275)
Assay: co-IP + ELISA
OUTCOME MEASURE: Kd
Report as: number unit

Suppose we examine the substance Human recombinant ADAMTS13 truncated after the eighth TSR (domain or fragment) ; what Kd value has been reported?
100 nM

Origin of the recorded values: paper PMC3863616
